SYSTEM: Neurogenic locus notch homolog protein 2 (Homo sapiens)
ASSAY_OVERVIEW: Notch2 binders on small-molecule microarrays, primary screen, biochemical, small-molecule microarray, 635 nm fluorescence, stem cell growth factors (AID 1073)
CONDITION_PARAMETERS: Notch2 binding, higher = more signal
Label rule, in plain words: composite z-score of 1 and up is MET, under 1 is NOT MET.

{"COMPOUND": "NCCCCCNC(=O)[C@@H]1C[C@@H]2C(=O)N[C@@H](Cc3ccccc3)C(=O)N2[C@@H]1c1cccc(OCCO)c1", "LABEL": "NOT MET"}
{"COMPOUND": "COCCOC(=O)N1C(=O)[C@@]2(c3cc(C#CC4=CCCCC4)ccc31)[C@H](C(N)=O)[C@H]1C(=O)O[C@H](c3ccccc3)[C@H](c3ccccc3)N1[C@@H]2c1ccc(OCCO)cc1", "LABEL": "NOT MET"}
{"COMPOUND": "O=C1NC(=O)C2C1C=CC(C(O)Cc1ccccc1)N2Nc1ccc(Cl)cc1Cl (configuration not stated)", "LABEL": "NOT MET"}
{"COMPOUND": "COCCOC(=O)N1C(=O)[C@@]2(c3cc(C#CCNC(N)=O)ccc31)[C@H](C(=O)NC[C@H](O)c1ccccc1)[C@H]1C(=O)O[C@H](c3ccccc3)[C@H](c3ccccc3)N1[C@@H]2c1ccccc1OCCO", "LABEL": "MET"}
{"COMPOUND": "CC(C)C(=C=CC[C@@H](O)c1ccccc1OCCO)CCO", "LABEL": "NOT MET"}
{"COMPOUND": "O=C1NCC(=O)N2[C@@H]1C[C@@H](C(=O)O)[C@H]2c1cccc(OCCO)c1", "LABEL": "MET"}

Inquiry: Form field: composite z-score at least 1? Entry: O=C1NC(=O)C2C1C=CC(C(O)c1cccc3ccccc13)N2Nc1ccccn1 (configuration not stated)
Reply text: MET

====

ASSAY_OVERVIEW: small-molecule microarray binders of probe aNog, primary screen, biochemical, biotinylated probe, 635/667 nm fluorescence (AID 1115);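 also: probe is biotinylated aNog protein used at 0.15 µg/mL for 1 h at 4 C; z-score combines 667 nm fluorescence of each spot with its signal to noise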
CONDITION_PARAMETERS: higher = more signal
Decide using composite z-score: a value greater than or equal to -0.09 is Satisfied, a smaller one is Not satisfied.

Solved entries:
{"MOLECULE": "COc1ccc([Si](C)(C)[C@H]2[C@H](CCO)O[C@@]3(C(=O)N(C)c4c(Br)cc(C)cc43)[C@@H]2C)cc1", "LABEL": "Satisfied"}
{"MOLECULE": "COC(=O)[C@@]1(Cc2ccc(F)cc2)[C@H]2c3cc(C(=O)N4CCCC4)n(Cc4ccc(C)o4)c3C[C@H]2CN1C(=O)c1ccccc1", "LABEL": "Not satisfied"}
{"MOLECULE": "CCCCN1CC=CC23O[C@@H]4/C=C\\CCC(C)OC(=O)C4[C@H]2C(=O)N(CCCCCO)[C@@H]3C1=O (stereo partly drawn)", "LABEL": "Not satisfied"}
{"MOLECULE": "C=CCOC(=O)[C@@H]1[C@H]2C(=O)O[C@H](c3ccccc3)[C@H](c3ccccc3)N2[C@H](c2ccc(OCCOC(=O)[C@@H]3C[C@@H]4C(=O)N5CCC[C@H]5C(=O)N4[C@@H]3c3ccc(O)cc3)cc2)[C@@]12C(=O)Nc1ccc(I)cc12", "LABEL": "Not satisfied"}
{"MOLECULE": "C=CCOC(=O)[C@@H]1[C@H]2C(=O)O[C@H](c3ccccc3)[C@H](c3ccccc3)N2[C@H](c2ccc(OCCOC(=O)[C@@H]3C[C@@H]4C(=O)N[C@@H](CCCC[N+](C)(C)C)C(=O)N4[C@@H]3c3cccc(OCCO)c3)cc2)[C@@]12C(=O)Nc1ccc(I)cc12", "LABEL": "Satisfied"}

We next turn to a different molecule, shown below.
Inquiry: Could you please find out whether O=C1O[C@H](c2ccccc2)[C@H](c2ccccc2)N2[C@H]1[C@@H](C(=O)O)[C@]1(C(=O)Nc3ccc(C#CCCO)cc31)[C@H]2c1ccc(O)cc1 has composite z-score that meets -0.09 or exceeds it?
Reply text: Satisfied
